Quick list: pIC50 per entry.
Experiment: Inhibition of Staphylococcus aureus UPPS-mediated condensation of FPP with IPP by spectrophotometric analysis
Scale: pIC50 equals -log10([C]), with [C] in mol/L.

[[record]]
mol_smiles = "O=C(O)CCN1C(=O)/C(=C/c2ccc(-c3ccc(Cl)cc3Cl)o2)SC1=S"
value_reported = 5.62


In: State its pIC50 for this molecule: `O=C(O)CCCCCN1C(=O)/C(=C/c2ccc(-c3cc(Cl)ccc3Cl)o2)SC1=S`
Out: 5.42

In: Quickly give me recorded pIC50 for `O=C1/C(=C\c2cccc(O)c2O)SC(=S)N1Cc1ccco1`
Out: 5.28

In: Identify measured pIC50 corresponding to `CCOc1cc(/C=C2\SC(=S)N(c3ccc(F)cc3)C2=O)ccc1O`
Out: 3.82
